src = ChEMBL document CHEMBL5058577

Tested on: HEK-293T
Assay: Multiplex assay against HEK293T
Type: toxicity, cell-based
Conditions: human, 48 h, 1 µM, compound concentration 1 uM, replicate 1
property_label: Population Hoechst High Intensity Objects (%)
Number in %, nothing else.

Study these solved cases before continuing.
[
  {
    "compound": "O=c1nc2[nH]c3ccccc3nc-2c(=O)[nH]1",
    "reported_measurement": 3
  },
  {
    "compound": "CC(C)C[C@H](CO)Nc1nc(S[C@@H](C)c2ccccc2)nc2nc(N)sc12",
    "reported_measurement": 1
  },
  {
    "compound": "CCc1nn2c(C)cc(C)nc2c1Cc1ccc(-c2nnc(C3CCNCC3)o2)cc1",
    "reported_measurement": 2
  }
]

Incoming: Determine from records and report Population Hoechst High Intensity Objects (%) for Cn1cc(C(=O)OCC2CCN(CCNS(C)(=O)=O)CC2)c2ccccc21
Outgoing: 3

Incoming: Determine from records and report Population Hoechst High Intensity Objects (%) for Cc1cc(-c2ccc3c(c2)CC[C@H]3N2CC3(CCN(C(=O)Cc4cn5cc(C)sc5n4)CC3)C2)ncn1
Outgoing: 1

---

Items are presented alongside their recorded Population Pyknosed Nuclei (%).
System: Fibroblast
Assay: Multiplex assay against human fibroblast
Format: toxicity, cell-based
Conditions: 48 h, 10 µM, compound concentration 10 uM, replicate 2
Number in %, nothing else.

Study these solved cases before continuing.
[
  {
    "compound": "N[C@](CC1c2ccccc2Oc2ccccc21)(C(=O)O)[C@H]1C[C@@H]1C(=O)O",
    "tgt": "Fibroblast",
    "unit_annotation": "%",
    "Population Pyknosed Nuclei (%)": 9
  },
  {
    "compound": "Cn1cc(C(=O)OCC2CCN(CCNS(C)(=O)=O)CC2)c2ccccc21",
    "tgt": "Fibroblast",
    "unit_annotation": "%",
    "Population Pyknosed Nuclei (%)": 12
  },
  {
    "compound": "COc1ccc2[nH]c(I)c(CCNC(C)=O)c2c1 [IODOMELATONIN]",
    "tgt": "Fibroblast",
    "unit_annotation": "%",
    "Population Pyknosed Nuclei (%)": 12
  },
  {
    "compound": "COc1cc(OC2CCN(C(C)=O)CC2)ccc1C(=O)N1CCC(N2C(=O)OCc3ccccc32)CC1",
    "tgt": "Fibroblast",
    "unit_annotation": "%",
    "Population Pyknosed Nuclei (%)": 12
  },
  {
    "compound": "COCCCN1CCC(NC(=O)c2cc(Cl)c(N)c3c2OCC3)CC1 [PRUCALOPRIDE]",
    "tgt": "Fibroblast",
    "unit_annotation": "%",
    "Population Pyknosed Nuclei (%)": 17
  },
  {
    "compound": "COc1c(Nc2ccc(S(C)(=O)=O)nc2C)ncnc1OC1CCN(C(=O)OC(C)C)CC1 [ADP-597]",
    "tgt": "Fibroblast",
    "unit_annotation": "%",
    "Population Pyknosed Nuclei (%)": 7
  },
  {
    "compound": "Cc1cc(NC(=O)NCCN2CCC(O)(Cc3ccccc3)CC2)c2ccccc2n1 [PALOSURAN]",
    "tgt": "Fibroblast",
    "unit_annotation": "%",
    "Population Pyknosed Nuclei (%)": 16
  },
  {
    "compound": "Cc1sc2c(c1C)C(c1ccc(Cl)cc1)=N[C@H](CC(=O)OC(C)(C)C)c1nnc(C)n1-2",
    "tgt": "Fibroblast",
    "unit_annotation": "%",
    "Population Pyknosed Nuclei (%)": 13
  }
]

Incoming: Determine from records and report Population Pyknosed Nuclei (%) for Nc1nc(-c2ccco2)c2cnn(Cc3ccccc3F)c2n1
Outgoing: 10

Incoming: Determine from records and report Population Pyknosed Nuclei (%) for COc1ccc2c(c1OCc1ccccc1)C[C@@H](C(=O)O)N(C(=O)C(c1ccccc1)c1ccccc1)C2 [OLODANRIGAN]
Outgoing: 12

Incoming: Determine from records and report Population Pyknosed Nuclei (%) for COc1cc2nc(N3CCN(C(=O)COc4c(OC)cccc4C(C)C)CC3)nc(N)c2cc1OC.Cl.Cl
Outgoing: 33

---

Items are presented alongside their recorded Population Mitochondria Different-Phenotype (%).
Test system: HEK-293T
Test: Multiplex assay against HEK293T
Format: toxicity, cell-based
Conditions: human, 12 h, 1 µM, compound concentration 1 uM, replicate 1
Non-standard residues stand in square brackets, D forms with d. Residues, ends and D or L forms follow the SMILES beside them.
Number in %, nothing else.

Study these solved cases before continuing.
[
  {
    "molecule": "CCCCC[C@H](O)/C=C/[C@H]1[C@H](O)CC(=O)[C@@H]1CCCCCCC(=O)O",
    "tgt": "HEK-293T",
    "reported_measurement": 42
  },
  {
    "molecule": "CC(C)C[C@@H]1NC(=O)[C@@H](C(C)C)NC(=O)[C@@H]2CCCN2C(=O)[C@@H](CC(=O)O)NC(=O)[C@@H](Cc2c[nH]c3ccccc23)NC1=O [BQ-123] (cyclo(L[dW][dD]P[dV]))",
    "tgt": "HEK-293T",
    "reported_measurement": 39
  }
]

Moving on to the next molecule.
Incoming: Determine from records and report Population Mitochondria Different-Phenotype (%) for O=C(NCCNCC(O)COc1ccc(O)cc1)N1CCOCC1.O=C(NCCNCC(O)COc1ccc(O)cc1)N1CCOCC1.O=C(O)/C=C/C(=O)O (stereo not drawn) [XAMOTEROL FUMARATE]
Outgoing: 39

---

System: U2OS
Test: Multiplex assay against U2OS
Format: toxicity, cell-based
Settings: human, 24 h, 1 µM, compound concentration 1 uM, replicate 1
Hi! Could you tag entries with Population Tubulin-Different-Phenotype (%) below 2% as 1 (yes), and those at or above as 0 (no)? Much appreciated.

[
  {
    "molecule": "O=C(Nc1cc(-c2ccccc2)nn1-c1ccccc1F)c1ccc([N+](=O)[O-])cc1",
    "discrete_label": "0 (no)"
  }
]

Incoming: Check if Population Tubulin-Different-Phenotype (%) falls below 2% for CCCCCCNC(=O)Nc1ccc(S(=O)(=O)Nc2ccc(CCNC[C@H](O)COc3ccc(O)cc3)cc2)cc1 [L-755507] .
Outgoing: 0 (no)

Incoming: Check if Population Tubulin-Different-Phenotype (%) falls below 2% for COC(c1ccccc1)(c1ccccc1)[C@H](Oc1nc(C)cc(C)n1)C(=O)O [AMBRISENTAN] .
Outgoing: 1 (yes)

Incoming: Check if Population Tubulin-Different-Phenotype (%) falls below 2% for CC(C)(O)C(=O)N1CCN(c2ccc(C(F)(F)F)c(C3=C(c4c[nH]c5ccccc45)C(=O)NC3=O)c2)CC1 .
Outgoing: 0 (no)

---

Items are presented alongside their recorded Population Normal (%).
Test system: U2OS
Experiment: Multiplex assay against U2OS
Type: toxicity, cell-based
Conditions: human, 12 h, 1 µM, compound concentration 1 uM, replicate 2
Number in %, nothing else.

Study these solved cases before continuing.
[
  {
    "molecule": "Cc1cc(-c2ccc3c(c2)CC[C@H]3N2CC3(CCN(C(=O)Cc4cn5cc(C)sc5n4)CC3)C2)ncn1 [PF-5190457]",
    "property_label": "Population Normal (%)",
    "reported_measurement": 100
  },
  {
    "molecule": "COc1cc(C(=O)N2CC[C@@H](O)[C@@H](N)C2)cc2nc(-c3cc4ccccc4n3CC3CC3)n(C)c12.Cl",
    "property_label": "Population Normal (%)",
    "reported_measurement": 98
  },
  {
    "molecule": "COc1cc2nc(N3CCN(C(=O)c4ccco4)CC3)nc(N)c2cc1OC.Cl [PRAZOSIN HYDROCHLORIDE]",
    "property_label": "Population Normal (%)",
    "reported_measurement": 98
  }
]

Moving on to the next molecule.
Incoming: Determine from records and report Population Normal (%) for COc1cc2nc(N3CCN(C(=O)COc4c(OC)cccc4C(C)C)CC3)nc(N)c2cc1OC.Cl.Cl
Outgoing: 97

---

Test system: HEK-293T
Assay: Multiplex assay against HEK293T
Assay type: toxicity, cell-based
Details: human, 24 h, 10 µM, compound concentration 10 uM, replicate 1
Hi! Could you tag entries with Population Fragmented Nuclei (%) below 9% as Condition met, and those at or above as Condition not met? Much appreciated.

Sample answers from the record:
[
  {
    "compound": "COc1ccc2c(c1OCc1ccccc1)C[C@@H](C(=O)O)N(C(=O)C(c1ccccc1)c1ccccc1)C2",
    "discrete_label": "Condition met"
  },
  {
    "compound": "Cc1nn(C)c2nc(NNC(=O)Nc3cc(Cl)nc(Cl)c3)cc(C(C)C)c12",
    "discrete_label": "Condition not met"
  },
  {
    "compound": "Cc1cc(O)c(-c2ccc([C@@H](C)CN(C)C)cc2)c2c1[nH]c(=O)c1sccc12",
    "discrete_label": "Condition met"
  },
  {
    "compound": "CN(C)C(=O)Cn1cc(-c2ccc(-c3nnc4ccccn34)cc2)cn1",
    "discrete_label": "Condition met"
  },
  {
    "compound": "Cc1c(Cc2ccc3ccccc3n2)c2cc(F)ccc2n1CC(=O)O",
    "discrete_label": "Condition met"
  },
  {
    "compound": "CCCCC[C@H](O)/C=C/[C@H]1[C@H](O)CC(=O)[C@@H]1CCCCCCC(=O)O",
    "discrete_label": "Condition not met"
  },
  {
    "compound": "O=c1ccc2ccc(OCCCCN3CCN(c4cccc5sccc45)CC3)cc2[nH]1",
    "discrete_label": "Condition not met"
  },
  {
    "compound": "CN1CCN(c2ccc(Nc3c4ccccc4nc4ccccc34)cc2)CC1.Cl.Cl.O",
    "discrete_label": "Condition not met"
  }
]

Incoming: Check if Population Fragmented Nuclei (%) falls below 9% for COc1cc2nc(N3CCN(C(=O)COc4c(OC)cccc4C(C)C)CC3)nc(N)c2cc1OC.Cl.Cl .
Outgoing: Condition not met

Incoming: Check if Population Fragmented Nuclei (%) falls below 9% for COCCCN1CCC(NC(=O)c2cc(Cl)c(N)c3c2OCC3)CC1 [PRUCALOPRIDE] .
Outgoing: Condition met

Incoming: Check if Population Fragmented Nuclei (%) falls below 9% for Cc1cc(-c2ccc3c(c2)CC[C@H]3N2CC3(CCN(C(=O)Cc4cn5cc(C)sc5n4)CC3)C2)ncn1 .
Outgoing: Condition not met

Incoming: Check if Population Fragmented Nuclei (%) falls below 9% for CN1C[C@H](C(=O)N[C@]2(C)O[C@@]3(O)[C@@H]4CCCN4C(=O)[C@H](Cc4ccccc4)N3C2=O)C[C@@H]2c3cccc4[nH]cc(c34)C[C@H]21.CS(=O)(=O)O [DIHYDROERGOTAMINE MESYLATE] .
Outgoing: Condition not met

Incoming: Check if Population Fragmented Nuclei (%) falls below 9% for COCCn1c(C)c(C)s/c1=N\C(=O)C1C(C)(C)C1(C)C .
Outgoing: Condition not met

Incoming: Check if Population Fragmented Nuclei (%) falls below 9% for Cn1cc(C(=O)OCC2CCN(CCNS(C)(=O)=O)CC2)c2ccccc21 .
Outgoing: Condition not met

Incoming: Check if Population Fragmented Nuclei (%) falls below 9% for O=C(O)CCC/C=C\CC1C(O)CC(O)C1/C=C/C(O)COc1cccc(Cl)c1 (configuration not stated) .
Outgoing: Condition not met
